PROTOCOL_TEXT: COS7 lysate on small-molecule microarray, probe aHis, 635 nm (AID 1123);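 further: z-score combines 667nm fluorescence intensity with signal-to-noise per printed compound spot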
EXPERIMENTAL_CONTEXT: COS7 cell lysate, fluorescence, higher = more signal
Outcome label depends on composite z-score relative to 1: at/above gives T, below gives F.

Cc1ccc(N2C(=O)c3ccccc3[C@](C)(C(=O)NCCN3CCOCC3)[C@@H]2c2ccc(CO)cc2)nc1 = F

Query: Reported composite z-score at or above 1? COc1ccccc1CN1C(=O)c2ccccc2[C@](Cc2ccccc2I)(C(=O)NC2CC2)[C@@H]1c1ccc(CO)cc1
Response: T

Query: composite z-score >= 1 for O=C1O[C@@H](c2ccccc2)[C@@H](c2ccccc2)N2[C@@H](c3ccccc3OCCO)[C@]3(C(=O)Nc4ccc(C#CC5(O)CCCCCC5)cc43)[C@@H](C(=O)NC[C@H](O)c3ccccc3)[C@H]12 ?
Response: T

Query: Does the reported composite z-score for CC(C)(C)OC(=O)CC[C@]1(C(=O)NCC(O)CO)N=C(c2ccc(OCCCO)cc2)O[C@H]1c1ccccc1CN=[N+]=[N-] (stereo partly specified) fall at or above the 1 mark?
Response: T

Query: Does COc1ccc([Si](C)(C)[C@@H]2[C@@H](CCO)O[C@]3(C(=O)N(Cc4cccc(N5CCCCC5=O)c4)c4ccccc43)[C@H]2C)cc1 have a reported composite z-score of at least 1?
Response: T

Query: Decide: is the reported value of composite z-score for C=C(COC)C(=O)CC[C@H](OC(=O)c1cccnc1)c1ccccc1OCCO equal to or greater than 1?
Response: F

Query: Check this molecule for composite z-score at or above 1: Cc1cccc(/C=C/C=O)c1
Response: F

* * *

EXPERIMENTAL_SYSTEM: Luciferin 4-monooxygenase (Photinus pyralis) (UniProt P08659)
Sequence (P08659 whole entry, looked up): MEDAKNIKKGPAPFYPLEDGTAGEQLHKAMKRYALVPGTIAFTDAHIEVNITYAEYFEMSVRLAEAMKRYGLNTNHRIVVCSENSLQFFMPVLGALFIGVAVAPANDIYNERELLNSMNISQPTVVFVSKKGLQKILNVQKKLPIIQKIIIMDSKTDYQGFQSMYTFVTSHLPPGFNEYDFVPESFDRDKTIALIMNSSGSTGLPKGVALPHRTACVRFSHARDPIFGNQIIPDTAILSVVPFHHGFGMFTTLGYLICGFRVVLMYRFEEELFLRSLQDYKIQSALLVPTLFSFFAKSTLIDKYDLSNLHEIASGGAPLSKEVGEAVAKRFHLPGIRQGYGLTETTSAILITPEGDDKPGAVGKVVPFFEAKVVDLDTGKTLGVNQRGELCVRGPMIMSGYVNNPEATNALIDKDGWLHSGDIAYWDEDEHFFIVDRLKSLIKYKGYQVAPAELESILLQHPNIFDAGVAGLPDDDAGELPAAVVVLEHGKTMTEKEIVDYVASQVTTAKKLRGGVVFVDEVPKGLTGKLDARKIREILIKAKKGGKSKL
PROTOCOL_TEXT: inhibition of purified Photinus pyralis luciferase – biochemical, luminescence, purified enzyme, 2006 set, primary screen (AID 1141);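 further: cell-free assay with purified firefly luciferase at 100 ng per well in PBS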
EXPERIMENTAL_CONTEXT: purified firefly luciferase, SteadyGlo luminescence, 30 min; higher = more signal, called active from +8 up or from −8 down
Threshold check on z-score: at or above 0.6 gives label 1, strictly below gives label 0.

Would you please look over these solved cases?
CCCCCN1CC=CC23O[C@@H]4C=CCCOC(=O)C4[C@H]2C(=O)N(CCCO)[C@@H]3C1=O (stereo partly specified) = label 0
C=CCOC(=O)[C@@H]1[C@H]2C(=O)O[C@H](c3ccccc3)[C@H](c3ccccc3)N2[C@H](c2ccc(OCCOC(=O)[C@H]3C[C@H]4C(=O)N[C@@H](CC(C)C)C(=O)N4[C@H]3c3cccc(OCCO)c3)cc2)[C@@]12C(=O)Nc1ccc(I)cc12 = label 0
CO[C@H]1O[C@H](CO)[C@@H](OC(=O)Nc2ccccc2-c2ccccc2)[C@H](OC(=O)Nc2ccccc2-c2ccccc2)[C@H]1OC(=O)Nc1ccccc1-c1ccccc1 = label 0
C#C[C@H]1Oc2ccccc2S(=O)(=O)N2CCC[C@@H]12 = label 0
CN1C(=O)C2C=CC(C(O)C(C)(C)C)N(Nc3ccccc3)C2C1=O (stereo unspecified) = label 1

# next compound below
Query: Answer whether z-score of NC(=O)NCC#Cc1ccc2c(c1)[C@]1(C(=O)N2)[C@H](C(=O)NC[C@H](O)c2ccccc2)[C@H]2C(=O)O[C@H](c3ccccc3)[C@H](c3ccccc3)N2[C@@H]1c1ccccc1OCCO is greater than or equal to 0.6.
Response: label 1

* * *

PROTOCOL_TEXT: JC-1 mitochondrial potential readout, lung cancer cells – cell-based, A549, JC-1 fluorescence, basal, 24 h, 100 nL, profiling panel (AID 1138);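 further: A549 lung adenocarcinoma cells under basal conditions with no added stimulus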
EXPERIMENTAL_CONTEXT: higher = more signal
This section presents molecules with their documented z-score values.
Give only the figure.

C=CCNC(=O)[C@H]1[C@@H]2C(=O)O[C@@H](c3ccccc3)[C@@H](c3ccccc3)N2[C@@H](c2ccc(O)cc2)[C@]12C(=O)Nc1ccc(C#Cc3ccc(OC)cc3)cc12 = -0.769
COc1ccc([Si](C)(C)[C@H]2[C@H](CCO)O[C@@]3(C(=O)N(Cc4ccccc4)c4ccc(N5C(=O)COc6ccccc65)cc43)[C@@H]2C)cc1 = 0.771

// below: z-score requested for another molecule
Query: # input molecule: Cc1ccc(S[C@]2(C(=O)NCCN3CCOCC3)CC(=O)N(C3CCCCC3)[C@@H]2c2ccc(CO)cc2)cc1 ; wanted: its z-score
Response: 1.63

* * *

PROTOCOL_TEXT: resazurin metabolic signal in HepG2 cells – cell-based, resazurin fluorescence, 24 h, PK04 Diversity Set, profiling panel (AID 1172)
EXPERIMENTAL_CONTEXT: HepG2 viability, higher = more signal
ASSAY_READOUT: z-score
Give only the figure.

Use the examples below as a reference point.
O=C1c2ccccc2[C@@]2(Cc3ccccc3N(Cc3ccccc3)C2=O)[C@H](c2ccc(CO)cc2)N1Cc1ccccc1C(F)(F)F = -0.897
CN1C(=O)C2C=CC(C(O)C(c3ccccc3)c3ccccc3)N(Nc3ccccc3)C2C1=O (centres undefined) = -0.562
O=C1O[C@H](c2ccccc2)[C@H](c2ccccc2)N2[C@H]1[C@@H](C(=O)NC[C@H](O)c1ccccc1)[C@]1(C(=O)Nc3ccc(C#CC4(O)CCCCCC4)cc31)[C@H]2c1ccccc1OCCO = -2.48

Consider the record given below.
Query: I would be grateful if you could share the reported z-score for COC(=O)c1c(CC[C@@H](CO)NC(=O)Nc2ncn[nH]2)oc(C(=O)Cc2ccccc2)c1C(=O)OC .
Response: 0.172

* * *

PROTOCOL_TEXT: small molecules captured by biotinylated probe aFST – biochemical, small-molecule microarray, fluorescence 635/667, stem cell growth factor project, primary screen (AID 1086);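 further: score merges 667 nm fluorescence with signal-to-noise of each printed compound spot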
EXPERIMENTAL_CONTEXT: higher = more signal
// Not fulfilled strictly below -0.04 in composite z-score; Fulfilled otherwise

As a guide, the following entries are already answered.
Cc1ccc(S[C@]2(C(=O)NCC(F)(F)F)CC(=O)N(C3Cc4ccccc4C3)[C@@H]2c2ccc(CO)cc2I)cc1 = Not fulfilled
O=C1c2ccccc2[C@](Cc2ccccc2I)(C(=O)O)[C@H](c2ccc(CO)cc2)N1Cc1ccccc1C(F)(F)F = Not fulfilled
C=C(CCCC)/C(=C/C[C@@H](OC(=O)c1ccncc1)c1ccc(CO)o1)c1cc(C(=O)OC)ccc1OC = Fulfilled
COc1ccc([Si](C)(C)[C@H]2[C@H](CC(=O)N3Cc4ccccc4C[C@H]3CO)O[C@@]3(C(=O)N(Cc4cccc(I)c4)c4ccccc43)[C@@H]2C)cc1 = Not fulfilled
COc1ccc(C(O)C2C=CC3C(=O)N(c4ccccc4)C(=O)C3N2Nc2ccccc2)c2ccccc12 (configuration not stated) = Fulfilled
CCOC(=O)C[C@H]1[C@H](OC(=O)c2ccccc2-c2ccccc2)[C@@H](NC(=O)c2ccc(-c3ccccc3)cc2)c2cc(OCCCO)ccc2N1C(=O)c1ccccc1 = Fulfilled

Consider now this further compound.
Query: Could you verify whether the entry CN1C(=O)C2C=CC(C(O)C(C)(C)C)N(Nc3ccccc3)C2C1=O (configuration not stated) shows composite z-score of no less than -0.04?
Response: Fulfilled

* * *

Listing: z-score of selected compounds
PROTOCOL_TEXT: basal CRE-LacZ reporter activity in PC12 – cell-based, unstimulated, primary screen (AID 1145)
EXPERIMENTAL_CONTEXT: no forskolin, luminescence, 4.5 h, higher = more signal, called active from +8 up or from −8 down
The answer should be written as a number, with no unit following it.

Please review the entries below; each comes with its answer.
O=c1cccc(-c2cccc3ccccc23)o1 = 0.182
O=C1C2C=CC(C(O)c3ccc(-c4ccccc4)s3)N(Nc3ccccc3F)C2C(=O)N1c1ccccc1 (centres undefined) = 0.629
O=C(NCc1ccccc1)[C@@H]1c2ccccc2C(=O)N(C2CCCCC2)[C@H]1c1ccc(CO)cc1 = 0.234

Please find the next compound below.
Query: Given COC(=O)[C@@]1(Cc2ccc(F)cc2)[C@H]2c3cc(C(=O)N(C)C)n(CCCNc4ccc(C(F)(F)F)cc4Cl)c3C[C@H]2CN1C(=O)c1ccccc1 , state its recorded z-score.
Response: -0.379

* * *

Each entry below lists one item and its recorded composite z-score value.
Tested on: XIP peptide (Xip251-270)
PROTOCOL_TEXT: compounds binding XIP fragment 251-270 – biochemical, small-molecule microarray, fluorescence 635/667 nm, 0.5 µg/mL protein, primary screen (AID 1183)
EXPERIMENTAL_CONTEXT: fluorescence 635 nm, higher = more signal
// no unit, no text: just the number

C=C(COC)/C(=C/C[C@H](OC(C)=O)c1ccccc1OCCO)c1cnc2ccccc2c1 = 0.0219
COC(=O)[C@@]1(Cc2ccc(OC)cc2)[C@H]2c3cc(C(=O)N4CCCC4)n(CCc4ccccn4)c3C[C@H]2CN1C(=O)c1ccccc1 = 0.864
C=CCOC(=O)[C@@H]1[C@H]2C(=O)O[C@H](c3ccccc3)[C@H](c3ccccc3)N2[C@H](c2ccc(OCCOC(=O)[C@H]3C[C@H]4C(=O)N[C@@H](CCCC[N+](C)(C)C)C(=O)N4[C@H]3c3cccc(OCCO)c3)cc2)[C@@]12C(=O)Nc1ccc(I)cc12 = 0.646
C=C(CCCC)/C(=C/C[C@@H](OC(=O)c1ccncc1)c1ccc(CO)o1)c1cc(C(=O)OC)ccc1OC = 0.83
CC1CC/C=C\[C@H]2OC34C=CCN(CCN5CCOCC5)C(=O)[C@H]3N(CCCCCO)C(=O)[C@@H]4C2C(=O)O1 (some centres not stated) = -1.32

Query: composite z-score; subject: Oc1ccc2cc[n+](Cc3cccc(OC(F)(F)F)c3)cc2c1
Response: 0.558

Query: Find the recorded composite z-score belonging to CCCC[C@@H]1C[C@H]1[C@@H](NC(=O)c1ccccc1)c1ccc(-c2ccccc2)cc1 and report it.
Response: -0.0572
